Assay: Pharmacokinetic study in 6-OHDA-induced PD rats after oral administration
Type: in vivo
Conditions: rat, plasma, 50 mg/kg
measuredParameter: AUC(0-t) (ng·h/mL)

O=C(/C=C/CCc1ccc2c(c1)OCO2)N1CCCCC1	136

P. CC(C)CNC(=O)/C=C/C=C/c1ccc2c(c1)OCO2
Q. O=C(/C=C/C=C/c1ccc2c(c1)OCO2)N1CCCCC1
Lower value for measured AUC(0-t)? Options: P , Q Respond using the label that marks the chosen record.
P

* * *

Assay: Pharmacokinetic study in sham rats after oral administration of PLA
Assay type: in vivo
Conditions: rat, plasma, 50 mg/kg
measuredParameter: Cmax (ng/mL)

CC(C)CNC(=O)/C=C/C=C/c1ccc2c(c1)OCO2 [PPL, piperlonguminine]	89.1

A. O=C(/C=C/C=C/c1ccc2c(c1)OCO2)N1CCCCC1 [PPR, piperine]
B. O=C(/C=C/CCc1ccc2c(c1)OCO2)N1CCCCC1 [PPRA, piperanine]
Lower value for measured Cmax? Options: A , B Respond using the label that marks the chosen record.
B
